For each of the variants below, state its self-cleavage.
B1: HDV Ribozyme (parent)
chain: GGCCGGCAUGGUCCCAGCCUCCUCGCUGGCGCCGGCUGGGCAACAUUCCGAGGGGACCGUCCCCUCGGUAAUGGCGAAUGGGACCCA

# Variants of: B1
# test details: self-cleavage, relative activity (ratio to wild type); higher = more cleavage; co-transcriptional
Numbers only.

G29U G59A
0.102

Please look at the items below and tell me self-cleavage for each one, in order.
1. G2C C3U
2. C18A C62A

result:
0.102
0.102

// data source = the RNAGym collection of RNA variant scans (doi:10.7554/elife.80360)
